organism: Rattus norvegicus; test: Open TG-GATES - Regimen: Daily Repeat; assay type: toxicity, organism-based, Sprague-Dawley; set-up: regimen Daily Repeat, gender Male, age 6 weeks; conditions: in vivo, po, 300 mg/kg, 72 h, tissue Plasma, route gavage, dose level Middle, time 3 day
Property name: CRE (mg/dL)
Give the value in mg/dL but do not write mg/dL after it.

Answered cases to consult:
COC(=O)C1=C(C)NC(C)=C(C(=O)OC)C1c1ccccc1[N+](=O)[O-]: 0.2
CCOc1ccc(NC(C)=O)cc1: 0.2

Continue with the compound presented below.
Sample "O=C(OC[C@H]1O[C@@H](OC(=O)c2cc(O)c(O)c(OC(=O)c3cc(O)c(O)c(O)c3)c2)[C@H](OC(=O)c2cc(O)c(O)c(OC(=O)c3cc(O)c(O)c(O)c3)c2)[C@@H](OC(=O)c2cc(O)c(O)c(OC(=O)c3cc(O)c(O)c(O)c3)c2)[C@@H]1OC(=O)c1cc(O)c(O)c(OC(=O)c2cc(O)c(O)c(O)c2)c1)c1cc(O)c(O)c(OC(=O)c2cc(O)c(O)c(O)c2)c1" ; CRE observed: 0.5
